Molecular target: T1, EphA4 ligand-binding domain (human, amino acids 22-203) (human, UniProt P54764, biotin on primary amines (EZ link NHS biotin) in the AlphaScreen assays only)
T1 construct: cloned from the EphA4 Human cDNA ORF clone (Origene); His6 tag removed with murine caspase-3; Amine-coupled to the chip in SPR; biotinylated in AlphaScreen; also called EphA4 LBD; hEphA4 LBD; source: E. coli BL21 codon+ pICA2, purified (Ni-Sepharose, Source 15Q, Superdex 75); not shown: His6, N-terminal, cleaved
T1 sequence (P54764 22-203): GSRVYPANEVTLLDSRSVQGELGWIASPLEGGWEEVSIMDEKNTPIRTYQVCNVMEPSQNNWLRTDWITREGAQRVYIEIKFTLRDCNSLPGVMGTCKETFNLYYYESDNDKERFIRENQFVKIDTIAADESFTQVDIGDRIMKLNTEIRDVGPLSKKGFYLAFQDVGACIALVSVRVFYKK
Experiment: SPR; Biacore T200; EphA4 LBD amine-coupled to CM5 chip (300 RU); Nbs (1-300 nM) as analyte, 60 μl/min; 10 mM Hepes, 150 mM NaCl, 3 mM EDTA, 0.01 mM Surfactant P-20, pH 7.35; two-state model
Conditions: both partners purified

{"Binder": "Nb 60 (VHH, Cloned in the phagemid pMECS; Same clonal group as Nb 90; also called Nanobody 60; source: E. coli WK6, periplasmic extract, purified (His GraviTrap, Sephadex G25)) VHH: QVQLQESGGGLVQPGGSLRLSCAASGFTFSRYWIYWVRQAPGKQRELVAAITRNGVTNYADSVKGRFTISTDDNKNTVYLQMNSLKSEDTAVYYCNAWGFLLGDIEDYWGQGTQVTVSS", "binding result": "binds"}
{"Binder": "Nb 19 (VHH, Cloned in the phagemid pMECS; Same clonal group as Nb 57; also called Nanobody 19; source: E. coli WK6, periplasmic extract, purified (His GraviTrap, Sephadex G25)) VHH: QVQLQESGGGLVQPGGSLRLSCAATGRNFNAYSIAWFRQAPGKEREFVASINWSGSNTYYAVAVKGRFTTSRDNAKNTVYLQMNSLKPEDTAVYYCNAFAAGWGPDYWGQGTQVTVSS", "binding result": "binds"}
